Values were extracted from patent US20250368745A1.

Molecular target: T1, human IL-18BP (human, UniProt O95998 31-194)
T1 construct: UniProt printed as 095998; also called hIL-18BP
T1 sequence: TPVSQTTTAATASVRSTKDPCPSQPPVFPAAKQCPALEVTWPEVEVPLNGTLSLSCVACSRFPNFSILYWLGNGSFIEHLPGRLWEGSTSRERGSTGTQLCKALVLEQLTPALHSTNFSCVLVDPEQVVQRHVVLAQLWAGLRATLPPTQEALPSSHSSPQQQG
Assay: BLI, apparent KD
Exercise: state measured pKd for each of the binders provided.
Answers are plain numbers, as −log10 of the molar value.

Known pKd results, listed for orientation:
SA301a LC-P95E (antibody, V domains shown) VH: QVQLQESGPGLVKPSQTLSLTCTVSGYSITSDYNSHWIRQPPGKGLEWIGYIHYSGSTNYNPSLKSRVTISRDTSKNQFSLKLSSVTAADTAVYYCARNYGSIYVNYFDYWGQGTLVTVSS VL: EIVLTQSPATLSLSPGERATLSCSASSSVSYMYWYQQKPGQAPRPLIYRTSNLASGIPARFSGSGSGTDFTLTISSLEPEDFAVYYCQQYHSYETFGGGTKVEIK ... 9.36
SA301a LC-H92T (antibody, V domains shown) VH: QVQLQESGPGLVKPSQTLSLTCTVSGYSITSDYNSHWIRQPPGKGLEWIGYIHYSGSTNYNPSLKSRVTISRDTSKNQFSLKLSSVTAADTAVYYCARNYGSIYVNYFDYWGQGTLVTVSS VL: EIVLTQSPATLSLSPGERATLSCSASSSVSYMYWYQQKPGQAPRPLIYRTSNLASGIPARFSGSGSGTDFTLTISSLEPEDFAVYYCQQYTSYPTFGGGTKVEIK ... 9.82

Problem: Given the binder SA301a LC-Q90E (antibody, name in Kabat numbering, V domains shown, IgG1 kappa) VH: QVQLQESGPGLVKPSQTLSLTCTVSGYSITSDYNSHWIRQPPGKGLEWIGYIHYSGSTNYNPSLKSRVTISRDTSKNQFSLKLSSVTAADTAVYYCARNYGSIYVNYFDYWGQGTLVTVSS VL: EIVLTQSPATLSLSPGERATLSCSASSSVSYMYWYQQKPGQAPRPLIYRTSNLASGIPARFSGSGSGTDFTLTISSLEPEDFAVYYCQEYHSYPTFGGGTKVEIK , what is its reported pKd?
Result: 9.74
